tested on: GENCs; conditions: read-out: EC50, PGE2 release from GENCs; dose-response, FIG. 6D

{"molecule": "O=C(O)CCC(=O)O [succinate]", "measure.unit": "µM", "EC50": 214}

* * *

Reported renin release (change in quinacrine fluorescence intensity normalized to baseline) by item:
test system: JGA (renin-producing JG cells); assay: In vitro microperfused afferent arteriole-glomerulus (JGA) renin release, quinacrine fluorescence confocal imaging; set-up: species or system rabbit; conditions: agent combined with high glucose 25.5 mM; succinate 5 mM, malonate 1 mM, fluorocitrate 100 μM, L-NAME 1 mM, indomethacin 50 μM
endpoint.label: renin release (change in quinacrine fluorescence intensity normalized to baseline)

{"compound": "O=C(O)CC(=O)O [malonate]", "system.tested": "JGA (renin-producing JG cells)", "assay.result": "77±2 Δ%"}
{"compound": "COC(=O)[C@@H](N)CCCNC(=N)N[N+](=O)[O-] [L-NAME]", "system.tested": "JGA (renin-producing JG cells)", "assay.result": "14±6 Δ%"}
{"compound": "COc1ccc2c(c1)c(CC(=O)O)c(C)n2C(=O)c1ccc(Cl)cc1 [indomethacin]", "system.tested": "JGA (renin-producing JG cells)", "assay.result": "13±2 Δ%"}
{"compound": "O=C(O)CCC(=O)O [succinate]", "system.tested": "JGA (renin-producing JG cells)", "assay.result": "56±3 Δ%"}
{"compound": "O=C(O)CC(O)(C(=O)O)C(F)C(=O)O (centres unmarked) [fluorocitrate]", "system.tested": "JGA (renin-producing JG cells)", "assay.result": "16±2 Δ%"}
